The entries below come with measured Inhibition of NO production (%) Mouse microglia 10 μM values attached.
test system: Mouse microglia; assay: NO production (Griess assay), LPS/IFNγ-activated mouse microglia; format: cell-based; conditions: 10 μM, 24 hours, 1 μM GABA, LPS/IFNγ
QUANTITY_KIND: Inhibition of NO production (%) Mouse microglia 10 μM

C#Cc1ccc2c(c1)C(c1ccccc1F)=NC(C)C(=O)N2C (stereo not shown) [GL-III-25]
25
C#Cc1ccc2c(c1)C(c1ccccc1F)=N[C@@H](C)C(=O)N2 [GL-I-64]
24
C#Cc1ccc2c(c1)C(c1ccccc1)=NCC(=O)N2 [GL-III-59]
43
CC1N=C(c2ccccn2)c2cc(Br)ccc2NC1=O (stereo not shown) [GL-II-05]
12

====

test system: BZR (benzodiazepine site of GABAAR); test: GABAAR/BZR binding, rat brain homogenate with 3H-flunitrazepam; conditions: Percent inhibition at 10,000 nM; rat brain homogenate, 3H-flunitrazepam
QUANTITY_KIND: BZR % (%)

C#Cc1ccc2c(c1)C(c1ccccn1)=NCc1c(C(=O)O)ncn1-2 [SR-II-54]
80
C#Cc1ccc2c(c1)C(c1ccccc1F)=N[C@@H](C)c1c(-c3cnco3)ncn1-2 [GL-III-78]
101
CCOC(=O)c1ncn2c1[C@@H](C)N=C(c1ccccc1F)c1cc(C3CC3)ccc1-2 [GL-III-42]
62
C#Cc1ccc2c(c1)C(c1ccccc1F)=N[C@@H](C)c1c(-c3nc(CC)no3)ncn1-2 [GL-I-66]
80
C[C@H]1N=C(c2ccccc2F)c2cc(Br)ccc2-n2cnc(C(=O)O)c21 [GL-II-93]
73
C#Cc1ccc2c(c1)C(c1ccccn1)=NCc1c(-c3cnco3)ncn1-2 [KRM-II-81]
86
C#Cc1ccc2c(c1)C(c1ccccc1F)=N[C@H](C)c1c(C(=O)N3CCCC3)ncn1-2 [GL-II-76]
43
C#Cc1ccc2c(c1)C(c1ccccc1F)=N[C@H](C)c1c(-c3nc(C(C)C)no3)ncn1-2 [MP-IV-010]
64

====

biological target: MOR (μ opioid receptor) (Homo sapiens); construct: expressed in transfected cells; host or cells: HEK293; test: MOR radioligand binding ([3H]-DAMGO, HEK293 cell homogenates); conditions: Percent inhibition at 10,000 nM; [3H]-DAMGO
Sequence (P35372 whole entry, species assumed): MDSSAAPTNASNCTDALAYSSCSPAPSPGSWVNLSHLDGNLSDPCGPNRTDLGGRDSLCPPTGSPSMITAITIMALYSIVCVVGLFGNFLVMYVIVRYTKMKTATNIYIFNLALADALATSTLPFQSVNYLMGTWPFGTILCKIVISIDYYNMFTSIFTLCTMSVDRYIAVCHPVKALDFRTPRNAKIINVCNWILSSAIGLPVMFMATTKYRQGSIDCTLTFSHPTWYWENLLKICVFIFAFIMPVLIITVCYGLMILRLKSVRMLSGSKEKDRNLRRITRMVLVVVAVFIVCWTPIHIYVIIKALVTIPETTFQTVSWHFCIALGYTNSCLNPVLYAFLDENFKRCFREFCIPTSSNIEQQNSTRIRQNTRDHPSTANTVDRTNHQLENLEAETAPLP
Label f if inhibition at 10 µM falls below 10%; label t in every other case.

C[C@H]1N=C(c2ccccc2F)c2cc(Br)ccc2-n2cnc(C(=O)O)c21 [GL-II-93]
f
Brc1ccc2c(c1)C(c1ccccn1)=NCc1c(-c3cnco3)ncn1-2 [KRM-II-97]
t
C#Cc1ccc2c(c1)C(c1ccccc1F)=N[C@H](C)c1c(C(=O)NC)ncn1-2 [MP-III-022]
f
C#Cc1ccc2c(c1)C(c1ccccn1)=N[C@H](C)c1c(C(=O)NC)ncn1-2 [GL-II-31]
t
CCOC(=O)c1ncn2c1[C@@H](C)N=C(c1ccccn1)c1cc(Br)ccc1-2 [GL-II-06]
t
Cc1noc(-c2ncn3c2[C@@H](C)N=C(c2ccccn2)c2cc(C4CC4)ccc2-3)n1 [GL-III-64]
f
COC(=O)c1ncn2c1[C@@H](C)N=C(c1ccccc1F)c1cc(Br)ccc1-2 [MP-III-058]
f
C#Cc1ccc2c(c1)C(c1ccccc1F)=N[C@H](C)c1c(C(=O)N(C)C)ncn1-2 [GL-II-73]
f
C[C@H]1N=C(c2ccccc2F)c2cc(C3CC3)ccc2-n2cnc(C(=O)N(C)C)c21 [GL-III-70]
f
C#Cc1ccc2c(c1)C(c1ccccc1F)=N[C@@H](C)c1c(-c3nc(C)no3)ncn1-2 [GL-I-65]
f
C#Cc1ccc2c(c1)C(c1ccccc1F)=N[C@@H](C)c1c(C(=O)OCC(F)(F)F)ncn1-2 [GL-I-36]
f
C#Cc1ccc2c(c1)C(c1ccccc1F)=N[C@@H](C)c1c(C(=O)SCC)ncn1-2 [GL-I-77]
t

====

The entries below come with measured Inhibition of NO production (%) Mouse microglia 10 μM values attached.
system: Mouse microglia; assay: NO production (Griess assay), LPS/IFNγ-activated mouse microglia; type: cell-based; conditions: 10 μM, 24 hours, 1 μM GABA, LPS/IFNγ
QUANTITY_KIND: Inhibition of NO production (%) Mouse microglia 10 μM

C#Cc1ccc2c(c1)C(c1ccccc1F)=NC(C)c1c(C(=S)N(C)C)ncn1-2 (stereo not drawn)
34
C#Cc1ccc2c(c1)C(c1ccccc1F)=NC(C)c1c(C(=S)NCC)ncn1-2 (stereo not drawn)
39
CC1N=C(c2ccccc2F)c2cc(Br)ccc2-n2cnc(C=O)c21 (stereo not drawn) [GL-III-75]
44
CCc1noc(-c2ncn3c2CN=C(c2ccccn2)c2cc(Br)ccc2-3)n1
49
CCOC(=O)c1ncn2c1CN=C(c1ccccn1)c1cc(C3CC3)ccc1-2
59
C#Cc1ccc2c(c1)C(c1ccccc1F)=NC(C)c1c(C(=O)[O-])ncn1-2.[Na+] (stereo not drawn)
41

====

Tested on: BZR (benzodiazepine site of GABAAR)
Experiment: GABAAR/BZR binding, rat brain homogenate with 3H-flunitrazepam
Settings: Percent inhibition at 10,000 nM; rat brain homogenate, 3H-flunitrazepam
Experimental: Ligand affinities were determined for KOR (κ opioid receptor), DOR (δ opioid receptor), and MOR (μ opioid receptor) using radioligand binding assays at a screening concentration of 10,000 nM. […] Gamma aminobutyric acid type A receptor (GABAAR) binding was determined with rat brain homogenate and ^3H-flunitrazepam. […] Psychoactive Drug Screening Program. […] Total binding and nonspecific binding are determined in the absence and presence of 10 μM of appropriate reference compound, respectively. […]
Label false if BZR % falls below 80%; label true in every other case.

C#Cc1ccc2c(c1)C(c1ccccc1F)=N[C@@H](C)c1c(C(=O)OC)ncn1-2 [MP-III-021]
true
C#Cc1ccc2c(c1)C(c1ccccc1F)=N[C@H](C)c1c(-c3nc(C)no3)ncn1-2 [MP-IV-004]
false
CCOC(=O)c1ncn2c1[C@H](C)N=C(c1ccccc1F)c1cc(Br)ccc1-2 [SH-I-048B]
false
C#Cc1ccc2c(c1)C(c1ccccn1)=N[C@H](C)c1c(C(=O)O)ncn1-2 [GL-II-30]
false

====

tested on: RAW macrophages; experiment: NO production (Griess assay), LPS/IFNγ-activated RAW264.7 macrophages; assay type: cell-based, mouse; conditions: 10 μM, 24 hours, 1 μM GABA, LPS/IFNγ
The entries below come with measured Inhibition of NO production (%) RAW macrophages 10 μM values attached.
QUANTITY_KIND: Inhibition of NO production (%) RAW macrophages 10 μM

CC1N=C(c2ccccc2F)c2cc(Cl)ccc2NC1=O (centres unmarked)
2
CC1N=C(c2ccccc2F)c2cc(Br)ccc2-n2cnc(C=O)c21 (centres unmarked) [GL-III-75]
3
CCNC(=O)c1ncn2c1[C@@H](C)N=C(c1ccccc1F)c1cc(Br)ccc1-2
4
CCc1noc(-c2ncn3c2CN=C(c2ccccn2)c2cc(Br)ccc2-3)n1
19
C#Cc1ccc2c(c1)C(c1ccccc1)=NCc1c(C(=O)OCCCO)ncn1-2
4

====

The entries below come with measured Ki values attached.
molecular target: BZR (benzodiazepine site of GABAAR); experiment: GABAAR/BZR binding, rat brain homogenate with 3H-flunitrazepam; details: rat brain homogenate, 3H-flunitrazepam
QUANTITY_KIND: Ki (nM)

C#Cc1ccc2c(c1)C(c1ccccc1F)=N[C@H](C)c1c(-c3cnco3)ncn1-2 [GL-III-73]
602
C#Cc1ccc2c(c1)C(c1ccccc1F)=N[C@@H](C)c1c(C(=O)NC(C)(C)C)ncn1-2 [GL-I-41]
140
C#Cc1ccc2c(c1)C(c1ccccc1F)=N[C@H](C)c1c(C(=O)OCC)ncn1-2 [SH-053-2′F-R-CH3]
379
C#Cc1ccc2c(c1)C(c1ccccn1)=NCc1c(C(=O)OC(C)C)ncn1-2 [MP-II-068]
42
Cc1noc(-c2ncn3c2[C@@H](C)N=C(c2ccccn2)c2cc(C4CC4)ccc2-3)n1 [GL-III-64]
1490
C#Cc1ccc2c(c1)C(c1ccccc1F)=N[C@@H](C)c1c(C(N)=O)ncn1-2 [MP-III-018.B]
17

====

system: Mouse microglia; assay: Cell viability (CellTiter-Glo), mouse microglia; format: cell-based; details: 50 μM, CellTiter-Glo
One threshold, 90%, splits the recorded Cell viability (%) Mouse microglia 50 μM values: lower ones are condition met, equal or higher ones are condition not met.

CCOC(=O)c1ncn2c1[C@@H](C)N=C(c1ccccc1F)c1cc(Cl)ccc1-2 [GL-III-53]
condition met
C#Cc1ccc2c(c1)C(c1ccccc1F)=NC(C)c1c(C(=S)NC)ncn1-2 (stereo not shown) [GL-III-84]
condition not met
C#Cc1ccc2c(c1)C(c1ccccc1F)=NCc1c(C(=O)OCCCOC(=O)c3ncn4c3CN=C(c3ccccc3F)c3cc(C#C)ccc3-4)ncn1-2 [YT-III-271]
condition not met
CC(C)c1noc(-c2ncn3c2[C@@H](C)N=C(c2ccccc2F)c2cc(C4CC4)ccc2-3)n1 [GL-IV-04]
condition met
CCOC(=O)c1ncn2c1[C@@H](C)N=C(c1ccccn1)c1cc(Br)ccc1-2 [GL-II-06]
condition met
C#Cc1ccc2c(c1)C(c1ccccc1)=NCC(=O)N2C [QH-II-66]
condition not met

The origin of these recorded values is patent US20240279232A1.
